- Tested system: LK35.2-hPD-L1 cells / PE-labeled PD-1-Ig (Homo sapiens, UniProt Q9NZQ7)
- Construct: expressed in transfected cells; host or cells: LK35.2 mouse B cell line
- Sequence (Q9NZQ7 19-290): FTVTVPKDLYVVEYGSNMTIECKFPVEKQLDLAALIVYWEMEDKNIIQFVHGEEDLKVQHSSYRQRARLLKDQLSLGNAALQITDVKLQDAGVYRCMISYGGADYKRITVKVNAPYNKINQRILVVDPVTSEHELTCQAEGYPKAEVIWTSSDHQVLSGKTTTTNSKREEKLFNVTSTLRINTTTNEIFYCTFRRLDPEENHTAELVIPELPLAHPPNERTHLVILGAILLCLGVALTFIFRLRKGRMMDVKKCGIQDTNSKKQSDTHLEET
- Assay notes: LK35.2-hPD-L1 cell binding high-content screening assay
- Format: cell-based
- Test settings: cluster symbol; cell line of CBA not given (LK35.2-hPD-L1 or 293T-hPD-L1); read-out: CBA IC50 cluster
Positions of bridges follow the written chain, without caps; N, C: chain ends. Non-standard residues stand in square brackets, D forms with d. Residues, ends and D or L forms follow the SMILES beside them. NMeNle = CCCC[C@H](NC)C(=O)O; NMeA = CN[C@@H](C)C(=O)O; Sar = CNCC(=O)O
Observed property: IC50

Looking for the measured IC50 of CCCC[C@H]1C(=O)N(C)[C@@H](CCCC)C(=O)N[C@@H](CCCNC(=N)N)C(=O)N[C@H](C(=O)NCC(N)=O)CSCC(=O)N[C@@H](Cc2ccccc2)C(=O)N(C)[C@@H](C)C(=O)N[C@@H](CCC(N)=O)C(=O)N2CCC[C@H]2C(=O)N[C@@H](Cc2cnc[nH]2)C(=O)N[C@@H](CC(C)C)C(=O)N(C)CC(=O)N[C@@H](Cc2c[nH]c3ccccc23)C(=O)N[C@@H](CO)C(=O)N[C@@H](Cc2c[nH]c3ccccc23)C(=O)N1C [Example 1089] ({CH2CO}-F[NMeA]QPHL[Sar]WSW[NMeNle][NMeNle]RCG-NH2; thioether N-14) , can you help?
> 0.0743 µM
